# Test system: AMPK-alpha1
# Construct: gene PRKAA1
# SETTINGS: concentration: 1 μM,replicates: in singlicate; n = 1;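 also: KINOMEscan kinase panel screen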
Entries and their %Inh
API: value field is a number in %; no unit string.

Please review the entries below; each comes with its answer.
>  <COMPOUND>
C[C@@H]1CCN(C(=O)N2CCCC2)C[C@@H]1N(C)c1ncnc2[nH]ccc12

>  <UNITS LABEL>
%

>  <%Inh>
66

$$$$
>  <COMPOUND>
Cn1cc(-c2cccc3c(N)c(C(N)=O)nnc23)cn1

>  <UNITS LABEL>
%

>  <%Inh>
47

$$$$
>  <COMPOUND>
Cc1n[nH]c2cc(Nc3ccnc(Nc4cccc(CN5CCOCC5)c4)n3)ccc12

>  <UNITS LABEL>
%

>  <%Inh>
0

$$$$
>  <COMPOUND>
COc1cc2ncn(-c3cc(OCC4CCCCC4)c(C(N)=O)s3)c2cc1OC

>  <UNITS LABEL>
%

>  <%Inh>
0

$$$$
>  <COMPOUND>
C[C@@H]1CNc2c(sc3ccc4nc(-c5ccc(O)cc5)ccc4c23)C(=O)N1

>  <UNITS LABEL>
%

>  <%Inh>
30

$$$$
>  <COMPOUND>
CN1CCN(CCCNc2nccc(-c3c(-c4ccc(F)cc4)nn4cc(C(N)=O)ccc34)n2)CC1

>  <UNITS LABEL>
%

>  <%Inh>
18

$$$$
>  <COMPOUND>
COc1cc2nccc(Nc3ccc(Oc4ccccc4)cc3)c2cc1OC.Cl

>  <UNITS LABEL>
%

>  <%Inh>
0

$$$$
>  <COMPOUND>
C[C@@H](Oc1cc(-n2cnc3cc(-c4ccncc4)ccc32)sc1C(N)=O)c1ccccc1Cl

>  <UNITS LABEL>
%

>  <%Inh>
5

$$$$

Q: Value lookup for %Inh; key = COc1ccc(Nc2nccc(N3CCC(NC(=O)c4cccc(C#N)c4)C3)n2)cc1 (stereo not drawn)
A: 0

Q: What value of measured %Inh is listed for c1ccc(Oc2ccc(Nc3ccnc4ccc(-c5ccccn5)cc34)cc2)cc1 ?
A: 10

Q: What measured %Inh goes with CS(=O)(=O)c1cccc(CNc2nc(Nc3ccc4c(c3)[C@@H]3C[C@@H]4CNC3=O)ncc2C(F)(F)F)c1 ?
A: 37

Q: Please report the recorded %Inh for Cn1ccc2ncnc(Oc3ccc(NC(=O)Nc4ccnc(C(F)(F)F)c4)c(Cl)c3)c21 .
A: 0

Q: I'd like to know its %Inh. The compound in question is CCn1c(-c2nonc2N)nc2cncc(Br)c21
A: 18

Q: Please give the measured %Inh for this compound: C[C@@H]1CNc2c(sc3ccc4nc(-c5ccncc5)ccc4c23)C(=O)N1
A: 20

Q: Entry Cl.Nc1n[nH]c2cc(-c3ccccn3)ccc12 has what %Inh?
A: 0

###

# Tested on: JAK3(JH1domain-catalytic)
# SETTINGS: concentration: 1 μM,replicates: in singlicate; n = 1
Entries and their %Inh
Write the number in % without appending the unit.

>  <COMPOUND>
Nc1nccc(-c2ccc3c(N)n[nH]c3c2)n1

>  <TESTED ON>
JAK3(JH1domain-catalytic)

>  <%Inh [%]>
14

$$$$
>  <COMPOUND>
COc1cc(Nc2nccc(N3CCC(NC(=O)c4cccc(C#N)c4)C3)n2)cc(OC)c1OC (stereo not drawn)

>  <TESTED ON>
JAK3(JH1domain-catalytic)

>  <%Inh [%]>
22

$$$$
>  <COMPOUND>
COC(=O)Nc1nc2cc(Oc3ccc(NC(=O)Nc4cc(C(F)(F)F)ccc4Cl)cc3)ccc2[nH]1.Cl

>  <TESTED ON>
JAK3(JH1domain-catalytic)

>  <%Inh [%]>
0

$$$$
>  <COMPOUND>
O=c1[nH]cc(-c2ccc(O)cc2)c2sc(-c3ccncc3)cc12

>  <TESTED ON>
JAK3(JH1domain-catalytic)

>  <%Inh [%]>
51

$$$$
>  <COMPOUND>
Cc1cccc(-c2nc(Nc3ccncc3)c3sccc3n2)n1

>  <TESTED ON>
JAK3(JH1domain-catalytic)

>  <%Inh [%]>
57

$$$$

Shifting focus to the compound that follows.
Q: Could you tell me which %Inh is on file for CCNCC(Cc1ccccc1)NC(=O)c1cc(Br)c(-c2ccnc3[nH]ccc23)s1.Cl.Cl (stereo not drawn) ?
A: 87

###

Each entry below carries its reported %Inh.
# Test system: ROCK1
# SETTINGS: concentration: 1 μM,replicates: in singlicate; n = 1
# unit: % | format: bare number

Guide cases for %Inh, answers given:
>  <MOLECULE>
COc1cccc(OC)c1C(=O)Nc1cccc(-c2nn3ccccc3c2-c2ccnc(Nc3cccc(F)c3)n2)c1

>  <ASSAY READOUT>
%Inh

>  <DATA VALUE>
0

$$$$
>  <MOLECULE>
C[C@@H](Oc1cc(-n2cnc3cc(-c4cnn(C)c4)ccc32)sc1C(N)=O)c1ccccc1Cl

>  <ASSAY READOUT>
%Inh

>  <DATA VALUE>
14

$$$$
>  <MOLECULE>
O=C(NCC1CC1)c1ccc(-c2cc(C(=O)NC3CC3)ccc2F)cc1

>  <ASSAY READOUT>
%Inh

>  <DATA VALUE>
58

$$$$

Q: I have this molecule here, CNC(=O)c1ccccc1Nc1nc(Nc2cccc(CS(C)(=O)=O)c2)ncc1C.O=CO , and I need its recorded %Inh.
A: 89

Q: Any idea what its %Inh is? The molecule is CC(=O)c1c(-c2ccncc2)[nH]c(-c2ccncc2)c1C
A: 46

Q: Requested read-out: %Inh. Entry: C[C@@H](Oc1cc(-n2cnc3cc(-c4ccncc4)ccc32)sc1C(N)=O)c1ccccc1Cl
A: 3

Q: Param item = CCCC(=O)Nc1n[nH]c2ncccc12 ; retrieve measured %Inh.
A: 0

Q: So what does the record say about %Inh for Cc1cccc2c(-c3ccncc3)c(-c3ccc(F)cc3)nn12.Cl ?
A: 18

Q: Given the entry COC(=O)Nc1nc2cc(Oc3ccc(NC(=O)Nc4cc(C(F)(F)F)ccc4Cl)cc3)ccc2[nH]1.Cl , report its measured %Inh.
A: 26

###

# Tested on: PIM3
# SETTINGS: concentration: 1 μM,replicates: in singlicate; n = 1
Listing of recorded %Inh by entry.
Write it as a number; the unit % goes unstated.

Below, 3 compounds whose answers are already recorded.
>  <COMPOUND>
COc1cc2c(Nc3ccc(NC(=O)c4ccccc4)cc3)ncnc2cc1OCCCN1CCOCC1

>  <ASSAY READOUT>
%Inh

>  <DATA VALUE>
0

$$$$
>  <COMPOUND>
COc1cccc(OC)c1C(=O)Nc1cccc(-c2nn3ccccc3c2-c2ccnc(Nc3cccc(F)c3)n2)c1

>  <ASSAY READOUT>
%Inh

>  <DATA VALUE>
13

$$$$
>  <COMPOUND>
CC(=O)Nc1nc2cnc(Nc3cc(NC(=O)c4cccc(CC(C)(C)C#N)c4)ccc3C)nc2s1

>  <ASSAY READOUT>
%Inh

>  <DATA VALUE>
22

$$$$

Turning now to a further record.
Q: Suppose we examine the compound C[C@@H]1CNc2c(sc3ccc4nc(-c5ccncc5)ccc4c23)C(=O)N1 ; what %Inh value has been reported?
A: 93.1

###

# %Inh per entry
# Tested on: MEK3
# Construct: gene MAP2K3
# SETTINGS: concentration: 1 μM,replicates: in singlicate; n = 1
Use % as the unit, but write only the number.

Q: I'd like to know its %Inh. The compound in question is CCCC(=O)Nc1n[nH]c2ncccc12 [SB-601436]
A: 21

Q: Endpoint output: %Inh of Cn1ccc2ncnc(Oc3ccc(NC(=O)Nc4cncc(C(F)(F)F)c4)c(Cl)c3)c21 . Value?
A: 0

Q: Given the compound FC(F)(F)c1cc(Br)cc(Nc2nccc(-c3cnn4ncccc34)n2)c1 [GW810578] , what is its reported %Inh?
A: 90.3

###

Here, each record is paired with measured %Inh data.
# System: JAK1(JH1domain-catalytic)
# SETTINGS: concentration: 1 μM,replicates: in singlicate; n = 1
Report the value in % with no unit label.

Below, each entry is followed by its recorded %Inh result.
>  <COMPOUND>
CC(C)c1nc(-c2cccc(NS(=O)(=O)c3ccccc3)c2)c(-c2ccnc(Nc3ccc4c(c3)CN(C)CC4)n2)s1

>  <%Inh (%)>
25

$$$$
>  <COMPOUND>
CC(=O)Nc1ccc(-c2cc3ncnc(SCC(=O)O)c3s2)cc1

>  <%Inh (%)>
0

$$$$
>  <COMPOUND>
COC(=O)c1cccc(NC(=O)NC2CCN(c3ccnc(NCc4ccc(F)cc4)n3)CC2)c1

>  <%Inh (%)>
8

$$$$
>  <COMPOUND>
O=C(NCC1CC1)c1ccc(-c2cc(C(=O)NC3CC3)ccc2F)cc1

>  <%Inh (%)>
0

$$$$
>  <COMPOUND>
CN(c1ccccc1CNc1nc(Nc2ccc3c(c2)CC(=O)N3)ncc1C(F)(F)F)S(C)(=O)=O

>  <%Inh (%)>
74

$$$$
>  <COMPOUND>
COc1cc2nccc(Nc3ccc(Oc4ccccc4)cc3)c2cc1OC.Cl

>  <%Inh (%)>
8

$$$$
>  <COMPOUND>
C[C@@H]1CNc2c(sc3ccc4nc(-c5ccc(O)cc5)ccc4c23)C(=O)N1

>  <%Inh (%)>
0

$$$$
>  <COMPOUND>
Cn1ccc2ncnc(Oc3ccc(NC(=O)Nc4cncc(C(F)(F)F)c4)c(Cl)c3)c21

>  <%Inh (%)>
0

$$$$

// moving on: another record for %Inh
Q: Using the record for CCn1c(-c2nonc2N)nc2cncc(Br)c21 , report its %Inh.
A: 18

Attribution: paper PMC5540273
